Study System: T1, MftR R48A (Mycobacterium smegmatis mc2155, UniProt A0QSB5 1-200, R48A)
T1 sequence: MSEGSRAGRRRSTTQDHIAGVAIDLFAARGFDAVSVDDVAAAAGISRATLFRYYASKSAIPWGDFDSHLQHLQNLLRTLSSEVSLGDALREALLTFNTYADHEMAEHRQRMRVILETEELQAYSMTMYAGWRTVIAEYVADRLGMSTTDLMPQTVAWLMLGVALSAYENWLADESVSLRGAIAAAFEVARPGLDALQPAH
Method Summary: fluorescence polarization; EMSA: 50 mM Hepes, 50 mM NaCl, 0.1 mM EDTA, pH 7.5, room temperature 10 min, 5% PAGE in 1x TBE on ice; footprinting: 30 C 30 min; FP conditions not in material. Text fold changes for R29A/R48A and L120R/M127A are swapped relative to Table 2; table values used
Conditions: protein: recombinant; tags: His-tag (pET-28a); chain copies: 2; label: 6-FAM; blunt
Measurement Name: pKd
Note: pKd values are expressed as the negative base-10 logarithm of concentration in M.

Q) Which pKd value is on record for FAM-Omft (dsDNA) DNA 1: TCCATTCTGGCACTCGATGCCATATAT DNA 2: ATATATGGCATCGAGTGCCAGAATGGA ?
A) 4.89
